Provenance of the data: ChEMBL document CHEMBL1649268

Tested on: Enterococcus faecium
Assay: Antimicrobial activity against Enterococcus faecium expressing VanA gene clinical isolates assessed as percent susceptible isolates by broth microdilution method
Format: functional
Field 'label' (enum: fulfilled / not fulfilled). Set to fulfilled when Activity is strictly under 1%; else not fulfilled.

CCCCCCCCCC(=O)N[C@@H](Cc1c[nH]c2ccccc12)C(=O)N[C@H](CC(N)=O)C(=O)N[C@@H](CC(=O)O)C(=O)N[C@@H]1C(=O)NCC(=O)N[C@@H](CCCN)C(=O)N[C@@H](CC(=O)O)C(=O)N[C@H](C)C(=O)N[C@@H](CC(=O)O)C(=O)NCC(=O)N[C@H](CO)C(=O)N[C@@H]([C@H](C)CC(=O)O)C(=O)N[C@@H](CC(=O)c2ccccc2N)C(=O)O[C@@H]1C :: not fulfilled

Data request: I wonder whether CN[C@H](CC(C)C)C(=O)N[C@H]1C(=O)N[C@@H](CC(N)=O)C(=O)N[C@H]2C(=O)N[C@H]3C(=O)N[C@H](C(=O)N[C@H](C(=O)O)c4cc(O)cc(O)c4-c4cc3ccc4O)[C@H](O)c3ccc(c(Cl)c3)Oc3cc2cc(c3O[C@@H]2O[C@H](CO)[C@@H](O)[C@H](O)[C@H]2O[C@H]2C[C@](C)(N)[C@H](O)[C@H](C)O2)Oc2ccc(cc2Cl)[C@H]1O [VANCOMYCIN] has Activity below 1%. Can you tell?
Data returned: fulfilled

Data request: Follow-up item: C[C@H]1COc2c(N3CCN(C)CC3)c(F)cc3c(=O)c(C(=O)O)cn1c23.C[C@H]1COc2c(N3CCN(C)CC3)c(F)cc3c(=O)c(C(=O)O)cn1c23.O [LEVOFLOXACIN]
Data returned: fulfilled

Data request: Follow-up item: CN[C@@H]1[C@H](O[C@H]2[C@H](O[C@H]3[C@H](O)[C@@H](O)[C@H](N=C(N)N)[C@@H](O)[C@@H]3N=C(N)N)O[C@@H](C)[C@]2(O)C=O)O[C@@H](CO)[C@H](O)[C@H]1O [STREPTOMYCIN]
Data returned: not fulfilled

Data request: Follow-up item: CC(=O)NC[C@H]1CN(c2ccc(N3CCOCC3)c(F)c2)C(=O)O1 [LINEZOLID]
Data returned: not fulfilled

====

Consider the following molecules; for each one, report its Activity.
Test system: Enterococcus faecium
Assay: Antimicrobial activity against vancomycin-susceptible Enterococcus faecium clinical isolates assessed as resistant isolates by broth microdilution method
Assay type: functional
Give bare numbers, in %.

CN[C@@H]1[C@H](O[C@H]2[C@H](O[C@H]3[C@H](O)[C@@H](O)[C@H](N=C(N)N)[C@@H](O)[C@@H]3N=C(N)N)O[C@@H](C)[C@]2(O)C=O)O[C@@H](CO)[C@H](O)[C@H]1O :: 44
C[C@H]1COc2c(N3CCN(C)CC3)c(F)cc3c(=O)c(C(=O)O)cn1c23.C[C@H]1COc2c(N3CCN(C)CC3)c(F)cc3c(=O)c(C(=O)O)cn1c23.O :: 66
CC1(C)S[C@@H]2[C@H](NC(=O)[C@H](N)c3ccccc3)C(=O)N2[C@H]1C(=O)O :: 72.3
CC(=O)NC[C@H]1CN(c2ccc(N3CCOCC3)c(F)c2)C(=O)O1 :: 0

API: the following record is the query input.
Data request: I have this molecule here, CN[C@H](CC(C)C)C(=O)N[C@H]1C(=O)N[C@@H](CC(N)=O)C(=O)N[C@H]2C(=O)N[C@H]3C(=O)N[C@H](C(=O)N[C@H](C(=O)O)c4cc(O)cc(O)c4-c4cc3ccc4O)[C@H](O)c3ccc(c(Cl)c3)Oc3cc2cc(c3O[C@@H]2O[C@H](CO)[C@@H](O)[C@H](O)[C@H]2O[C@H]2C[C@](C)(N)[C@H](O)[C@H](C)O2)Oc2ccc(cc2Cl)[C@H]1O , and I need its recorded Activity.
Data returned: 0

====

Test system: Streptococcus pyogenes
Test: Antimicrobial activity against erythromycin-nonsusceptible Streptococcus pyogenes clinical isolates assessed as percent susceptible isolates by broth microdilution method
Assay type: functional
QUANTITY_MEASURED: Activity (%)
Give bare numbers, in %.

Completed entries (count: 4):
CN[C@H](CC(C)C)C(=O)N[C@H]1C(=O)N[C@@H](CC(N)=O)C(=O)N[C@H]2C(=O)N[C@H]3C(=O)N[C@H](C(=O)N[C@H](C(=O)O)c4cc(O)cc(O)c4-c4cc3ccc4O)[C@H](O)c3ccc(c(Cl)c3)Oc3cc2cc(c3O[C@@H]2O[C@H](CO)[C@@H](O)[C@H](O)[C@H]2O[C@H]2C[C@](C)(N)[C@H](O)[C@H](C)O2)Oc2ccc(cc2Cl)[C@H]1O :: 100
CC[C@H]1OC(=O)[C@H](C)[C@@H](O[C@H]2C[C@@](C)(OC)[C@@H](O)[C@H](C)O2)[C@H](C)[C@@H](O[C@@H]2O[C@H](C)C[C@H](N(C)C)[C@H]2O)[C@](C)(O)C[C@@H](C)C(=O)[C@H](C)[C@@H](O)[C@]1(C)O :: 0
CC1(C)S[C@@H]2[C@H](NC(=O)Cc3ccccc3)C(=O)N2[C@H]1C(=O)O :: 100
CCC[C@@H]1C[C@@H](C(=O)N[C@@H]([C@H]2O[C@H](SC)[C@H](O)[C@@H](O)[C@H]2O)[C@H](C)Cl)N(C)C1 :: 71

API: the following record is the query input.
Data request: I have this compound here, C[C@H]1COc2c(N3CCN(C)CC3)c(F)cc3c(=O)c(C(=O)O)cn1c23.C[C@H]1COc2c(N3CCN(C)CC3)c(F)cc3c(=O)c(C(=O)O)cn1c23.O , and I need its recorded Activity.
Data returned: 99.2

====

Test system: Enterococcus faecalis
Assay: Antimicrobial activity against vancomycin-nonsusceptible Enterococcus faecalis clinical isolates assessed as percent susceptible isolates by broth microdilution method
Type: functional
QUANTITY_MEASURED: Activity (%)
One number for each entry, in %.

Completed entries (count: 5):
CC1(C)S[C@@H]2[C@H](NC(=O)[C@H](N)c3ccccc3)C(=O)N2[C@H]1C(=O)O :: 100
CN[C@H](CC(C)C)C(=O)N[C@H]1C(=O)N[C@@H](CC(N)=O)C(=O)N[C@H]2C(=O)N[C@H]3C(=O)N[C@H](C(=O)N[C@H](C(=O)O)c4cc(O)cc(O)c4-c4cc3ccc4O)[C@H](O)c3ccc(c(Cl)c3)Oc3cc2cc(c3O[C@@H]2O[C@H](CO)[C@@H](O)[C@H](O)[C@H]2O[C@H]2C[C@](C)(N)[C@H](O)[C@H](C)O2)Oc2ccc(cc2Cl)[C@H]1O :: 0
CC(=O)NC[C@H]1CN(c2ccc(N3CCOCC3)c(F)c2)C(=O)O1 :: 98.9
CN[C@@H]1[C@H](O[C@H]2[C@H](O[C@H]3[C@H](O)[C@@H](O)[C@H](N=C(N)N)[C@@H](O)[C@@H]3N=C(N)N)O[C@@H](C)[C@]2(O)C=O)O[C@@H](CO)[C@H](O)[C@H]1O :: 48.3
CCCCCCCCCC(=O)N[C@@H](Cc1c[nH]c2ccccc12)C(=O)N[C@H](CC(N)=O)C(=O)N[C@@H](CC(=O)O)C(=O)N[C@@H]1C(=O)NCC(=O)N[C@@H](CCCN)C(=O)N[C@@H](CC(=O)O)C(=O)N[C@H](C)C(=O)N[C@@H](CC(=O)O)C(=O)NCC(=O)N[C@H](CO)C(=O)N[C@@H]([C@H](C)CC(=O)O)C(=O)N[C@@H](CC(=O)c2ccccc2N)C(=O)O[C@@H]1C :: 98.9

API: the following record is the query input.
Data request: I have this compound here, C[C@H]1COc2c(N3CCN(C)CC3)c(F)cc3c(=O)c(C(=O)O)cn1c23.C[C@H]1COc2c(N3CCN(C)CC3)c(F)cc3c(=O)c(C(=O)O)cn1c23.O , and I need its recorded Activity.
Data returned: 0

====

Test system: Staphylococcus epidermidis
Experiment: Antimicrobial activity against oxacillin-susceptible Staphylococcus epidermidis clinical isolates assessed as resistant isolates by broth microdilution method
Assay type: functional
QUANTITY_MEASURED: Percent of isolates resistant (%)
One number for each entry, in %.

Completed entries (count: 3):
CC[C@H]1OC(=O)[C@H](C)[C@@H](O[C@H]2C[C@@](C)(OC)[C@@H](O)[C@H](C)O2)[C@H](C)[C@@H](O[C@@H]2O[C@H](C)C[C@H](N(C)C)[C@H]2O)[C@](C)(O)C[C@@H](C)C(=O)[C@H](C)[C@@H](O)[C@]1(C)O :: 45.4
Cc1onc(-c2ccccc2)c1C(=O)N[C@@H]1C(=O)N2[C@@H]1SC(C)(C)[C@@H]2C(=O)O :: 0
CN[C@H](CC(C)C)C(=O)N[C@H]1C(=O)N[C@@H](CC(N)=O)C(=O)N[C@H]2C(=O)N[C@H]3C(=O)N[C@H](C(=O)N[C@H](C(=O)O)c4cc(O)cc(O)c4-c4cc3ccc4O)[C@H](O)c3ccc(c(Cl)c3)Oc3cc2cc(c3O[C@@H]2O[C@H](CO)[C@@H](O)[C@H](O)[C@H]2O[C@H]2C[C@](C)(N)[C@H](O)[C@H](C)O2)Oc2ccc(cc2Cl)[C@H]1O :: 0

API: the following record is the query input.
Data request: Under Staphylococcus epidermidis: Percent of isolates resistant value of CCC[C@@H]1C[C@@H](C(=O)N[C@@H]([C@H]2O[C@H](SC)[C@H](O)[C@@H](O)[C@H]2O)[C@H](C)Cl)N(C)C1 ?
Data returned: 11
